molecular target: T1, human PD-L1 (human, UniProt Q9NZQ7 19-238, limits assumed); test: Biacore kinetic profile
T1 construct: Protein used in the Biacore assays of 3.1
T1 sequence (Q9NZQ7 19-238 limits assumed): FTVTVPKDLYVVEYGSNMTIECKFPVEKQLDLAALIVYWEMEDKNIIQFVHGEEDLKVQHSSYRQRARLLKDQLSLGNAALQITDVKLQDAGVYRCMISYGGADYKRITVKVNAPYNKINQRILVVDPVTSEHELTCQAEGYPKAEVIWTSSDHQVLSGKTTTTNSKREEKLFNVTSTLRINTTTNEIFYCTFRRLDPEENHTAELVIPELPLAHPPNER
Each item that follows carries a reported Kd.
Param answer (str): number followed by unit.

// below: answered binders
A09-248-2 (antibody, human IgG1, lambda, V domains shown, also called VL-A31G; VH-M31I, M33I, M35F, S63T, I93V) VH: EVQLLESGGGLVQPGGSLRLSCAASGFTFSIYIMFWVRQAPGKGLEWVSSIYPSGGITFYADTVKGRFTISRDNSKNTLYLQMNSLRAEDTAVYYCARIKLGTVTTVDYWGQGTLVTVSS VL: QSALTQPASVSGSPGQSITISCTGTSSDVGGYNYVSWYQQHPGKAPKLMIYDVSNRPSGVSNRFSGSKSGNTASLTISGLQAEDEADYYCSSYTSSSTRVFGTGTKVTVLG	0.1 nM
A09-241-2 (antibody, human IgG1, lambda, V domains shown, also called VL-A31G; VH-M31I, M33I, S63T, I93V) VH: EVQLLESGGGLVQPGGSLRLSCAASGFTFSIYIMMWVRQAPGKGLEWVSSIYPSGGITFYADTVKGRFTISRDNSKNTLYLQMNSLRAEDTAVYYCARIKLGTVTTVDYWGQGTLVTVSS VL: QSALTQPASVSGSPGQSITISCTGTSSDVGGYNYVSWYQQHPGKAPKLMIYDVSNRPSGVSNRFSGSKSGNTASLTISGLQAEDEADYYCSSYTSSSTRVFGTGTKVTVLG	0.32 nM
A09-214-1 (antibody, human IgG1, lambda, V domains shown, 193V read as I93V; also called VH-M31I, M33I, S63T, 193V) VH: EVQLLESGGGLVQPGGSLRLSCAASGFTFSIYIMMWVRQAPGKGLEWVSSIYPSGGITFYADTVKGRFTISRDNSKNTLYLQMNSLRAEDTAVYYCARIKLGTVTTVDYWGQGTLVTVSS VL: QSALTQPASVSGSPGQSITISCTGTSSDVGAYNYVSWYQQHPGKAPKLMIYDVSNRPSGVSNRFSGSKSGNTASLTISGLQAEDEADYYCSSYTSSSTRVFGTGTKVTVLG	0.4 nM
A09-215-1 (antibody, human IgG1, lambda, V domains shown, 193V read as I93V; also called VH-M33L, M35F, S63T, 193V) VH: EVQLLESGGGLVQPGGSLRLSCAASGFTFSMYLMFWVRQAPGKGLEWVSSIYPSGGITFYADTVKGRFTISRDNSKNTLYLQMNSLRAEDTAVYYCARIKLGTVTTVDYWGQGTLVTVSS VL: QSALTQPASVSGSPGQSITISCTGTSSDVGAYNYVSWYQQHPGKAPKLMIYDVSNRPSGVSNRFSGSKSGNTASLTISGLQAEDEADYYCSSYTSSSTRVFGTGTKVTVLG	1.28 nM

// query Supply Kd value. Item: A09-202-1 (antibody, human IgG1, lambda, V domains shown, also called VL-A31G) VH: EVQLLESGGGLVQPGGSLRLSCAASGFTFSMYMMMWVRQAPGKGLEWVSSIYPSGGITFYADSVKGRFTISRDNSKNTLYLQMNSLRAEDTAIYYCARIKLGTVTTVDYWGQGTLVTVSS VL: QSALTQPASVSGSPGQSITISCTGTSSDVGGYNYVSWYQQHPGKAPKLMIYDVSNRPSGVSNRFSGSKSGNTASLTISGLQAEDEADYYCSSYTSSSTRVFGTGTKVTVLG
// result 4.15 nM
